- Target: Marinobacter sp. msLacBP6 variant 187C, F68L, SEQ ID NO: 49, Badan conjugate
- Protocol: Fluorescence titration of conjugate (affinity tuning)
- Assay type: binding
- Measurement context: read-out: appKd (lactate); λ1 463, λ2 535 nm
Reported property: Kd (µM)
Write the answer as a number in µM, unit excluded.

### Prompt Hello, please tell me recorded Kd for this one: C[C@H](O)C(=O)O [lactate]
### Response 400

====

- Target: Marinobacter sp. msLacBP6 variant Y187C (187C), SEQ ID NO: 38, Badan conjugate
- Protocol: Fluorescence titration of conjugate
- Assay type: binding
- Measurement context: read-out: trueKd (lactate); λ1 460, λ2 537 nm
Reported property: Kd (µM)
Write the answer as a number in µM, unit excluded.

### Prompt Hello, please tell me recorded Kd for this one: C[C@H](O)C(=O)O [lactate]
### Response 200

====

- Target: Marinobacter adhaerens maLacBP8 variant F189C, SEQ ID NO: 43, Badan conjugate (Marinobacter adhaerens, UniProt E4PNW2, C105A/C90A/F252C)
- Construct: Badan on Cys189
- Sequence (E4PNW2 entry or part of it C90A/C105A/F252C): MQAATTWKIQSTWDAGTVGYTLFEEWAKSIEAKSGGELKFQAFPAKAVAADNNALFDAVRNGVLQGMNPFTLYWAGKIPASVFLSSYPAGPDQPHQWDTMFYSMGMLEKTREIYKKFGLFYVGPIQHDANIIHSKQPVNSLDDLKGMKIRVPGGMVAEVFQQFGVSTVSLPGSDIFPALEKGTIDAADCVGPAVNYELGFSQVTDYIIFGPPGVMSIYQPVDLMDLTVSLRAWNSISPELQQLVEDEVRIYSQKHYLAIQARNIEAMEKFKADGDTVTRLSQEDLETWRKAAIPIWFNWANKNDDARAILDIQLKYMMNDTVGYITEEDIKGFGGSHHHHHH
- Protocol: Fluorescence titration of conjugate
Reported property: Kd (µM)
Write the answer as a number in µM, unit excluded.

### Prompt Hello, please tell me recorded Kd for this one: C[C@H](O)C(=O)O [lactate]
### Response 600

====

- Target: Marinobacter sp. msLacBP6 variant 187C, D220E, SEQ ID NO: 56, Acrylodan conjugate
- Protocol: Fluorescence titration of conjugate (affinity tuning)
- Format: binding
- Measurement context: read-out: trueKd (lactate); λ1 483, λ2 510 nm
Reported property: pKd
Formally, pKd is defined as -log10 of the concentration c, with c in mol/L.

### Prompt Give reported pKd for C[C@H](O)C(=O)O [lactate] (Marinobacter sp. msLacBP6 variant 187C, D220E, SEQ ID NO: 56, Acrylodan conjugate)
### Response 2.40

====

- Target: Flexistipes sinusarabici fsLacBP13 variant W188C, SEQ ID NO: 47, Acrylodan conjugate (Flexistipes sinusarabici, UniProt F8E724, W211C)
- Construct: Acrylodan on Cys188
- Sequence (F8E724 entry or part of it W211C): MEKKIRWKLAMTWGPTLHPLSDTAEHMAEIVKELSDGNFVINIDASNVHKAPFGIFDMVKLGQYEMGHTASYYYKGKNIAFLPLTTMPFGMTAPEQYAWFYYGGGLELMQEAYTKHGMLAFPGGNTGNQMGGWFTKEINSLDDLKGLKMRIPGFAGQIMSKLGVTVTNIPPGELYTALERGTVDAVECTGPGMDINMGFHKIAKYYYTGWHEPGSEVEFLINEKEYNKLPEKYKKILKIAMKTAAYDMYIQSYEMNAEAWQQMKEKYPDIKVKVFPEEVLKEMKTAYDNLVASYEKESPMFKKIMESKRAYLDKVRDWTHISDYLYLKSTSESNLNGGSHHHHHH
- Protocol: Fluorescence titration of conjugate
- Type: binding
pKd: −log10 of the molar value.
Reported property: pKd

### Prompt Hello, please tell me recorded pKd for this one: C[C@H](O)C(=O)O [lactate]
### Response < 1.00

====

- Target: Marinobacter sp. msLacBP6 variant Y187C (187C), SEQ ID NO: 38, Acrylodan conjugate
- Protocol: Fluorescence titration of conjugate
- Type: binding
- Measurement context: read-out: trueKd (lactate); λ1 483, λ2 451 nm (Table 6)
Reported property: Kd (µM)
Write the answer as a number in µM, unit excluded.

### Prompt Hello, please tell me recorded Kd for this one: C[C@H](O)C(=O)O [lactate]
### Response 350

====

- Target: Marinobacter sp. msLacBP6 variant G170C, SEQ ID NO: 36, Badan conjugate
- Protocol: Fluorescence titration of conjugate
- Measurement context: read-out: trueKd (lactate); monochromatic, 520 nm
Reported property: Kd (µM)
Write the answer as a number in µM, unit excluded.

### Prompt Hello, please tell me recorded Kd for this one: C[C@H](O)C(=O)O [lactate]
### Response 20

====

- Target: Marinobacter sp. msLacBP6 variant W11C, Acrylodan conjugate
- Protocol: Fluorescence titration of conjugate
- Assay type: binding
- Measurement context: read-out: trueKd (lactate); λ1 473, λ2 520 nm
Reported property: Kd

### Prompt Give reported Kd for C[C@H](O)C(=O)O [lactate] (Marinobacter sp. msLacBP6 variant W11C, Acrylodan conjugate)
### Response 400 µM

Cited source for all entries: patent US11099176B2
